Target: NAD-dependent protein deacetylase sirtuin-2 (Homo sapiens, UniProt Q8IXJ6)
Sequence (Q8IXJ6 whole entry): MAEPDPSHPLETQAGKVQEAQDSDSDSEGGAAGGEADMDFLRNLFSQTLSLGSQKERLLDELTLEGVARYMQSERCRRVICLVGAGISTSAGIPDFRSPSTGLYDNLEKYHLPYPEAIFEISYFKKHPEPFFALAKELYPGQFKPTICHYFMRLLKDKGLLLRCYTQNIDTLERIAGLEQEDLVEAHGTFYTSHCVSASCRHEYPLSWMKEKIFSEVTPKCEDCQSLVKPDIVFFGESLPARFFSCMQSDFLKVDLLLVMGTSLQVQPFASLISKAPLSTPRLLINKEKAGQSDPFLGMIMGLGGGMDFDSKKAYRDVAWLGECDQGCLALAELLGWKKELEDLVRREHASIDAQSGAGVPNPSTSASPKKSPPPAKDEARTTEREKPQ
Assay: Inhibition of human SIRT2 defatty-acylation activity using peptide substrate preincubated in presence of NAD+ followed by substrate addition by HPLC analysis
readout.name: pIC50
Lab note — pIC50 values are minus log10 of concentrations in M.

[
  {
    "compound": "CCCCCCCCCCCCCC(=S)NCCCC[C@H](NC(=O)CCOCCOCCOCCOCCNc1cccc2c1C(=O)N(C1CCC(=O)NC1=O)C2=O)C(=O)Nc1ccccc1 (some centres not stated)",
    "pIC50": 6.96
  }
]

Query compound follows.
Quickly give me recorded pIC50 for CCCCCCCCCCCCCC(=S)NCCCC[C@H](NC(=O)CCOCCOCCNc1cccc2c1C(=O)N(C1CCC(=O)NC1=O)C2=O)C(=O)Nc1ccccc1 (some centres not stated)
6.77
